Non-standard residues stand in square brackets, D forms with d. Residues, ends and D or L forms follow the SMILES beside them. Met(O) = CS(=O)CC[C@H](N)C(=O)O
Target or system Kappa-type opioid receptor (Cavia porcellus); recorded quantity IC50.

Sample answers from the record:
COMPOUND	IC50
C[C@@H](NC(=O)[C@@H](N)Cc1ccc(O)cc1)C(=O)N[C@@H](Cc1ccccc1)C(=O)NCC(=O)N[C@@H](Cc1ccc(O)cc1)C(=O)N1CCC[C@H]1C(=O)N[C@@H](CO)C(N)=O [DERMORPHIN]	> 10 µM
C[S+]([O-])CC[C@H](NC(=O)[C@@H](N)Cc1ccc(O)cc1)C(=O)N[C@@H](Cc1ccccc1)C(=O)NCC(N)=O (stereo partly drawn) (H-Y[Met(O)]FG-NH2)	> 10 µM

IN: Return value of IC50 for input COC(=O)CNC(=O)[C@H](Cc1ccccc1)NC(=O)[C@H](CC[S+](C)[O-])NC(=O)[C@@H](N)Cc1ccc(O)cc1 (stereo partly drawn) (H-Y[Met(O)]FG-OMe) , no commentary.
OUT: > 10 µM
